settings: 293.15 K; 100 kPa; Liquid; Concentric cylinders viscometry
Numbers after ± are expanded uncertainties.
Property: viscosity; scope: individual compounds

[
  {
    "COMPOUND": "CCC(C)O (centres undefined)",
    "viscosity": "3.67 ± 0.15 mPa·s"
  },
  {
    "COMPOUND": "CC(C)O",
    "viscosity": "2.42 ± 0.1 mPa·s"
  },
  {
    "COMPOUND": "CCCC(C)O (centres undefined)",
    "viscosity": "3.97 ± 0.16 mPa·s"
  },
  {
    "COMPOUND": "O=Cc1ccccc1",
    "viscosity": "1.52 ± 0.06 mPa·s"
  }
]

* * *

conditions: 323.15 K; 100 kPa; Liquid; Vibrating tube method
Property: mass density; scope: individual compounds
READOUT KIND: mass density (kg/m3)

[
  {
    "COMPOUND": "CC(C)O [propan-2-ol]",
    "READOUT KIND": "mass density",
    "UNIT OF MEASUREMENT": "kg/m3",
    "OBSERVED RESULT": 758.8
  },
  {
    "COMPOUND": "CCCC(C)O (centres undefined) [pentan-2-ol]",
    "READOUT KIND": "mass density",
    "UNIT OF MEASUREMENT": "kg/m3",
    "OBSERVED RESULT": 784
  },
  {
    "COMPOUND": "CCC(C)O (centres undefined) [butan-2-ol]",
    "READOUT KIND": "mass density",
    "UNIT OF MEASUREMENT": "kg/m3",
    "OBSERVED RESULT": 780.6
  },
  {
    "COMPOUND": "O=Cc1ccccc1 [benzaldehyde]",
    "READOUT KIND": "mass density",
    "UNIT OF MEASUREMENT": "kg/m3",
    "OBSERVED RESULT": 1019.1
  }
]

* * *

details: 303.15 K; 100 kPa; Liquid; Concentric cylinders viscometry

[
  {
    "COMPOUND": "CCC(C)O (centres undefined)",
    "viscosity / mPa·s": 2.54
  },
  {
    "COMPOUND": "O=Cc1ccccc1",
    "viscosity / mPa·s": 1.31
  },
  {
    "COMPOUND": "CCCC(C)O (centres undefined)",
    "viscosity / mPa·s": 2.81
  },
  {
    "COMPOUND": "CC(C)O",
    "viscosity / mPa·s": 1.8
  }
]

* * *

conditions: 303.15 K; 100 kPa; Liquid; Vibrating tube method
Property: mass density; scope: individual compounds

[
  {
    "COMPOUND": "CCC(C)O (centres undefined)",
    "mass density (kg/m3)": 798.4
  },
  {
    "COMPOUND": "CCCC(C)O (centres undefined)",
    "mass density (kg/m3)": 801.2
  },
  {
    "COMPOUND": "CC(C)O",
    "mass density (kg/m3)": 776.8
  },
  {
    "COMPOUND": "O=Cc1ccccc1",
    "mass density (kg/m3)": 1037.1
  }
]

* * *

Property: mass density; scope: individual compounds
details: 313.15 K; 100 kPa; Liquid; Vibrating tube method
Numbers after ± are expanded uncertainties.

[
  {
    "COMPOUND": "O=Cc1ccccc1",
    "mass density": "1027.9 ± 1 kg/m3"
  },
  {
    "COMPOUND": "CC(C)O",
    "mass density": "768 ± 1 kg/m3"
  },
  {
    "COMPOUND": "CCCC(C)O (centres undefined)",
    "mass density": "792.7 ± 1 kg/m3"
  },
  {
    "COMPOUND": "CCC(C)O (centres undefined)",
    "mass density": "789.8 ± 1 kg/m3"
  }
]
